All values here come from PubChem BioAssay (NCI).

# Tested on: SN12C renal
# protocol-description: NCI-60 one-dose screen, 48 h (100 = growth as untreated, 0 = no growth, -100 = all killed)
# cond: 10 µM unless noted
About 83,000 compounds went through this panel and 20% of them were active in at least one assay; those are over-represented in the sample as a whole.
observed-property: growth (%)
Supply the numeric figure in %, leaving out any unit text.

Recorded growth for Fc1ccc(C2CC(c3cccc(Nc4ccncc4)c3)=NN2c2ccccc2)cc1 (stereo not given) , please? 75.8

Recorded growth for COc1cc2c(cc1[N+](=O)[O-])-c1ccc([N+](=O)[O-])cc1/C2=N/NC(N)=S , please? 67.1

Recorded growth for C/C(=C(/c1ccccc1)c1ccc(OCC(O)CNCCN2CCOCC2)cc1)c1ccccc1 (stereo not given) , please? 76.1

Recorded growth for COc1ccc(C(O)c2cc3c(N)c(C(=O)Nc4ccc(Br)cc4)sc3nc2C)cc1 (stereo not given) , please? 36

Please look at the following molecule next.
Recorded growth for Cc1cc2cc3cc(C)c(N)cc3[n+](C)c2cc1N , please? 8.73
